# TARGET_DESC: wild-type hGR (Homo sapiens)
# Construct: expressed in transfected cells
# Sequence (P04150 whole entry): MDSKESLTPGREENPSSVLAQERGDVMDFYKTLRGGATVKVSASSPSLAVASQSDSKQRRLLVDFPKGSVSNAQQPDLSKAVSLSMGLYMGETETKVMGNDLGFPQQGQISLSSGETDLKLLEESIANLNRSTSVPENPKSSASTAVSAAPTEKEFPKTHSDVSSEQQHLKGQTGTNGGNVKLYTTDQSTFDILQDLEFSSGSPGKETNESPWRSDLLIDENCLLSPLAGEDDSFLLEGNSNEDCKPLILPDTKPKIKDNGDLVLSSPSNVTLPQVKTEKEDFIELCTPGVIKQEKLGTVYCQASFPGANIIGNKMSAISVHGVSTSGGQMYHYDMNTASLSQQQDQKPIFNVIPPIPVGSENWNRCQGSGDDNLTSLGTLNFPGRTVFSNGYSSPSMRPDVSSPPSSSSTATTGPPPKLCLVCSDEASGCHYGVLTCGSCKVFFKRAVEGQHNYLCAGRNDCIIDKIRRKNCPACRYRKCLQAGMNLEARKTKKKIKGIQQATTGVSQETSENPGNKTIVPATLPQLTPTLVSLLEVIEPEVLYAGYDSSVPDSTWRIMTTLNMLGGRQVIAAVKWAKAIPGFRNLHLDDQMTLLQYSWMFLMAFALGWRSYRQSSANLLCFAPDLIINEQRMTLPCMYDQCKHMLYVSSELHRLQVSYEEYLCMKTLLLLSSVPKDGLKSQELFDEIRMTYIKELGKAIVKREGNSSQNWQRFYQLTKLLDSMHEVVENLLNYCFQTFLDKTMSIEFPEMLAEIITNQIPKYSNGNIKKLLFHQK
# ASSAY_NAME: Transcriptional activation of pTAT-tk-Luc luciferase reporter in transiently transfected CV-1 cells
# Type: cell-based
# Design: concentration or dose not given beside the values
# COND: 24 h ligand, mean of three independent assays
OBSERVATION_TYPE: Luciferase activity % Wild type (%)
The reply should be a number in %, with the unit left off.

Please review the entries below; each comes with its answer.
CC1(C)O[C@@H]2C[C@H]3[C@@H]4C[C@H](F)C5=CC(=O)C=C[C@]5(C)[C@@]4(F)[C@@H](O)C[C@]3(C)[C@]2(C(=O)CO)O1 [Fluocinolone, fluocinolone acetonide] : 75
C[C@]12CCC(=O)C=C1CC[C@@H]1[C@@H]2[C@@H](O)C[C@]2(C=O)[C@@H](C(=O)CO)CC[C@@H]12 : 90
C[C@]12CCC(=O)C=C1CC[C@@H]1[C@@H]2[C@@H](O)C[C@@]2(C)[C@H]1CC[C@]2(O)C(=O)CO : 110
CC#C[C@]1(O)CC[C@H]2[C@@H]3C=C(C)C4=CC(=O)C=C[C@]4(C)[C@H]3[C@@H](O)C[C@@]21C : 90

// next item, Luciferase activity % Wild type requested
Respond only with Luciferase activity % Wild type recorded for C[C@]12C[C@H](O)[C@H]3[C@@H](CCC4=CC(=O)CC[C@@]43C)[C@@H]1CC[C@@H]2C(=O)CO
100
